- system-tested: UniProt Q15722
- Sequence (Q15722 whole entry): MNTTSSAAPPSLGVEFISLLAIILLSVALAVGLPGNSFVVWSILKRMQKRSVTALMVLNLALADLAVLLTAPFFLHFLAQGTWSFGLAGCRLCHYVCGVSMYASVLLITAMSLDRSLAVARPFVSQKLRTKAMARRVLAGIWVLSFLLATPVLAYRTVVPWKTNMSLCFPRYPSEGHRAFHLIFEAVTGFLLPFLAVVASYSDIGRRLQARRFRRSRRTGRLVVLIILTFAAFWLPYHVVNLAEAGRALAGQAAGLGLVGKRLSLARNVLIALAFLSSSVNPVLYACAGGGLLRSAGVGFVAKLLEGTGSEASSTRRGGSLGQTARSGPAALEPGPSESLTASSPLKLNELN
- procedure-summary: Whole cell competition binding with [3H]-LTB4 in COS-7 cells expressing wild type LTB4 receptor
- conditions: wild type receptor, whole COS-7 cells; read-out: IC50, displacement of [3H]-LTB4
measure: IC50 (µM)
// units = µM; emit number, no label

The molecule listed as [Cl][Cu][Cl] [Cu(II), reference compound] has a reported IC50 of 70

src = patent US20020061599A1
